SYSTEM NAME: HMW-MAA-specific human scFv C21 (biotinylated (NHS-LC-biotin) in the competition and panning assays)
Sequence (chain, as listed by the source): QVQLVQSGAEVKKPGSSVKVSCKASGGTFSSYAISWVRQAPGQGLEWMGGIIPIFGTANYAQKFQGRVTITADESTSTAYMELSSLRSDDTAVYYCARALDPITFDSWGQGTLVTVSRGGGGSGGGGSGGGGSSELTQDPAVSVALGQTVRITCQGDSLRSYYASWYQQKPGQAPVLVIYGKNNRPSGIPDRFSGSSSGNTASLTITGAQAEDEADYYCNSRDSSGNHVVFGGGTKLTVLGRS
ASSAY DETAILS: SPR (Biacore 3000, 25 C), peptide over amine-coupled scFv C21, koff/kon
Bridges are numbered along the chain shown (N, C = ends). Where no end group is shown, it is not given here.
MEASUREMENT LABEL: Kd (µM)
Numeric answer only, unit µM assumed.

# count of solved cases: 2
SPSWYCPDCDKRPLV (disulfide 6-9 (inferred), Synthetic peptide) [peptide P1C21 (SPSWYCPDCDKRPLV), cyclized]: 8.24
RPYRYDPLGDLKSRH [peptide P3C21 (RPYRYDPLGDLKSRH), linear]: 30.2

Kindly consider the entry below.
Problem: Read off the recorded Kd for RPYRYDPLGSLKSRH [peptide P3S10 (RPYRYDPLGSLKSRH)]
Solution: 3.34
